For each of the compounds below, state its pIC50.
# measurement-target: HSP90a protein (Homo sapiens)
# Construct: purchased BPS Bioscience 50298
# test-summary: HSP90α-binding fluorescent polarization (FP) assay, BODIPY-labeled RNK04010 probe
# condition-label: FP competition with RNK04010 (BODIPY-labeled), 5 nM, 300 min at 25° C.
pIC50: −log10 of the molar value.

Incoming: // fetch HSP90a protein (Homo sapiens) pIC50 for "C=C(F)C(=O)N1CCN(c2nc(OCCN3CCN(C(=O)C4CCN(Cc5ccc(-n6c(C(=O)NCC(F)(F)F)nnc6-c6cc(C(C)C)c(O)cc6O)cc5)CC4)CC3)nc3c2CCN(c2cccc4cccc(Cl)c24)C3)C[C@@H]1CC#N"
Outgoing: > 7.00

Incoming: Then this compound: "CC(=O)N1CCN(c2nc(NCCC(=O)NCc3ccc(-n4c(O)nnc4-c4cc(C(C)C)c(O)cc4O)cc3C(F)(F)F)nc3c2CCN(c2cc(O)cc4ccccc24)C3)CC1"
Outgoing: 6.00 to 7.00

Incoming: Repeat with "C=CC(=O)N1CCN(c2nc(NCCC(=O)N3CCC(CN4CCN(Cc5ccc(-n6c(C(=O)NCC(F)(F)F)nnc6-c6cc(C)c(O)cc6O)cc5)CC4)CC3)nc3c2CCN(c2cc(O)cc4ccccc24)C3)CC1"
Outgoing: 6.00 to 7.00

Incoming: "C=CC(=O)N1CCN(c2nc(OCCN3CCN(Cc4cc(C(C)C)c(O)cc4O)CC3)nc3c2CCN(c2cccc4cccc(Cl)c24)C3)C[C@@H]1CC#N" , same question.
Outgoing: 6.00 to 7.00

* * *

# measurement-target: KRAS(G12C) (Homo sapiens, UniProt P01116, G12C)
# Sequence (P01116 1-188 isoform P01116-2 G12C): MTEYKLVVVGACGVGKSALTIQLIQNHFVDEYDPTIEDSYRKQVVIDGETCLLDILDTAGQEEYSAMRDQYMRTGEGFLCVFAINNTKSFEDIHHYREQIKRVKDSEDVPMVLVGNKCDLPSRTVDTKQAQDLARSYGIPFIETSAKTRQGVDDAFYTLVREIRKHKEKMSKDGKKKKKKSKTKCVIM
# test-summary: KRAS(G12C)/SOS1 homogeneous time-resolved fluorescence (HTRF) assay
# condition-label: absence of GTP, 4° C. for 3 hr, read-out: KRAS (G12C) binding
metric: IC50

Incoming: Dear colleague, I am looking for the recorded IC50 of the following compound: "C=CC(=O)N1CCN(c2nc(OC[C@@H]3CC[C@H](C(=O)N4CCN(C(=O)c5ccc(-n6c(C(=O)NCC(F)(F)F)nnc6-c6cc(C(C)C)c(O)cc6O)cc5)CC4)N3C)nc3c2CCN(c2cccc4cccc(Cl)c24)C3)C[C@@H]1CC#N"
Outgoing: < 100 nM

Incoming: // next record "C=CC(=O)N1CCN(c2nc(OC[C@@H]3C[C@H](C(=O)N4CCN(Cc5ccc(-n6c(C(=O)NCC(F)(F)C(F)(F)F)nnc6-c6cc(C(C)C)c(O)cc6O)cc5)CC4)CN3C)nc3c2CCN(c2cccc4cccc(Cl)c24)C3)C[C@@H]1CC#N"
Outgoing: 100 to 1000 nM

Incoming: And "C=CC(=O)N1CCN(c2nc(OC[C@@H]3C[C@H](N4CCC(C(=O)N5CCN(CCNC(=O)c6nnc(-c7cc(C(C)C)c(O)cc7O)n6-c6ccccc6)CC5)CC4)CN3C)nc3c2CCN(c2cccc4cccc(Cl)c24)C3)C[C@@H]1CC#N" ?
Outgoing: < 100 nM

Incoming: # iterate: "C=CC(=O)N1CCN(c2nc(OC[C@@H]3C[C@H](N4CCC5(CCN(Cc6ccc(-n7c(O)nnc7-c7cc(C(C)C)c(O)cc7O)cc6)CC5)CC4)CN3C)nc3c2CCN(c2cccc4cccc(Cl)c24)C3)C[C@@H]1CC#N"
Outgoing: < 100 nM
